Assay: Screening: visual/manual check whether a coalesced film formed
Assay type: physicochemical
Conditions: ethylcellulose dispersion plus additive; intact on and after removal from substrate
parameter: Film? Did the sample form a coalesced film? (yes or no)

OC[C@@H](O)[C@H](O)[C@@H](O)CO
no
CCCCCCCC/C=C\CCCCCCCC(=O)O
yes
CCCCOC(=O)CCCCCCCCC(=O)OCCCC [dibutyl sebacate]
yes
OC[C@@H](O)[C@@H](O)[C@H](O)[C@@H](O)CO
no
CCOC(=O)c1ccccc1C(=O)OCC [diethyl phthalate]
yes

Now look at this entry.
The measured Film? Did the sample form a coalesced film? (yes or no) associated with "CCCCCCCC/C=C\CCCCCCCCO" reads yes

====

Assay: Screening: visual/manual check whether a coalesced film formed
Format: physicochemical
Settings: ethylcellulose dispersion plus additive; intact on and after removal from substrate
Where a name gives a salt, the structure may show the parent alone.
parameter: Film? Did the sample form a coalesced film? (yes or no)

Look over these answered cases.
OCC(O)CO [glycerol]
no
CCCCC/C=C\C/C=C\CCCCCCCC(=O)O [linoleic acid]
yes
OC[C@@H](O)[C@@H](O[C@H]1O[C@H](CO)[C@@H](O)[C@H](O)[C@H]1O)[C@H](O)[C@@H](O)CO [maltitol]
no
CCOC(=O)CC(O)(CC(=O)OCC)C(=O)OCC [triethyl citrate]
yes
CCCCCCCCCCCCCCCCCC(=O)O [stearic acid]
yes
O=C(OCc1ccccc1)c1ccccc1 [benzyl benzoate]
yes
OCCc1ccccc1 [phenylethyl alcohol]
yes
OCc1ccccc1 [benzyl alcohol]
yes
CCCCOC(=O)CC(O)(CC(=O)OCCCC)C(=O)OCCCC [tributyl citrate]
yes
O=C(O)CCC(=O)O [succinic acid]
no

Entry CC(O)CO (stereo not shown) [propylene glycol] — recorded Film? Did the sample form a coalesced film? (yes or no) = yes

The recorded Film? Did the sample form a coalesced film? (yes or no) for entry OC[C@@H](O)[C@@H](O)[C@H](O)[C@H](O)CO [mannitol] equals no

====

Test: Screening: visual/manual check whether a coalesced film formed
Type: physicochemical
Details: ethylcellulose dispersion plus additive; intact on and after removal from substrate
parameter: Film? Did the sample form a coalesced film? (yes or no)

OCCNCCO [diethanolamine]
no
CCCOC(=O)c1cc(O)c(O)c(O)c1 [propyl gallate]
yes
CC(=O)OCC(COC(C)=O)OC(C)=O [triacetin]
yes
CC[N+](CC)(CC(=O)Nc1c(C)cccc1C)Cc1ccccc1 [denatonium benzoate]
no
